Where these numbers come from: paper PMC5789092

Tested on: HEp-2 (human larynx epidermal cancer)
Assay: SRB cytotoxicity assay, HEp-2
Format: cell-based
Details: 72 h, mean ± SD
pIC50: −log10 of the molar value.
ASSAY ENDPOINT: pIC50

Request: Report pIC50 for "C=C1C(=O)O[C@@H]2C[C@]3(C)C(=C[C@H]12)[C@@H](C)CC[C@H]3OC(=O)c1ccccc1" please.
Result: < 4.40

Request: Field request: pIC50 | item: "C=C1C(=O)O[C@@H]2C[C@]3(C)C(=C[C@H]12)[C@@H](C)CC[C@H]3OC(=O)/C=C/c1ccc(C(F)(F)F)cc1"
Result: < 4.40

Request: Look up pIC50 for this compound: "C=C1C(=O)O[C@@H]2C[C@]3(C)C(=C[C@H]12)[C@@H](C)CC[C@H]3OC(=O)c1ccc([N+](=O)[O-])cc1"
Result: < 4.40

Request: Given the compound "C=C1C(=O)O[C@@H]2C[C@]3(C)C(=C[C@H]12)[C@@H](C)CC[C@H]3OC(=O)/C=C/c1ccc(Br)cc1" , what is its reported pIC50?
Result: < 4.40

Request: Dear colleague, I am looking for the recorded pIC50 of the following compound: C=C1C(=O)O[C@H]2[C@H]1CC/C(C)=C/CC[C@@]1(C)O[C@@H]21 [P, parthenolide, reference compound]
Result: 5.17

Request: Which pIC50 reading was recorded for the compound "C=C1C(=O)O[C@@H]2C[C@]3(C)C(=C(C)CC[C@H]3OC(=O)c3ccc(F)cc3)C[C@H]12" ?
Result: < 4.40

Request: Returns the measured pIC50 for the input compound. Input: "C=C1C(=O)O[C@@H]2C[C@]3(C)C(=C[C@H]12)[C@@H](C)CC[C@H]3OC(=O)c1ccc(OC)cc1"
Result: < 4.40

Request: Data request, read-out pIC50, for "C=C1C(=O)O[C@@H]2C[C@]3(C)C(=C[C@H]12)[C@@H](C)CC[C@H]3OC(=O)CCC(=O)O"
Result: < 4.40

Request: pIC50 for C=C1C(=O)OC2CC3(C)C(=CC12)C(C)CCC3OC(C)=O (centres unmarked) ?
Result: 4.99

Request: Dear colleague, I am looking for the recorded pIC50 of the following compound: "C=C1C(=O)O[C@@H]2C[C@@]3(C)C(=O)CC[C@H](C)C3=C[C@H]12"
Result: 5.46

Request: Fill in the blank: the reported pIC50 of "C=C1C(=O)O[C@@H]2C[C@]3(C)C(=C[C@H]12)[C@@H](C)CC[C@H]3OC(=O)c1ccc(F)cc1" is ____.
Result: < 4.40

Request: Query (compound): "C=C1C(=O)O[C@@H]2C[C@]3(C)C(=C(C)CC[C@H]3OC(C)=O)C[C@H]12" ; field requested: pIC50
Result: < 4.40

Request: Give its pIC50 value. Item: "C=C1C(=O)O[C@@H]2C[C@@]3(C)C(=O)CCC(C)=C3C[C@H]12"
Result: 4.85

Request: Fill in the blank: the reported pIC50 of "C=C1C(=O)O[C@@H]2C[C@]3(C)C(=C(C)CC[C@H]3OC(=O)c3ccccc3)C[C@H]12" is ____.
Result: < 4.40
